- method: chemical genetic growth profiling, strain panel (AID 1159580);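 further: tested at 20 µM; growth read once vehicle control cultures reached saturation at 30 °C; 1 = growth at the plate median or of vehicle wells; lower values mean less growth of the strain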
- settings: S. cerevisiae deletion strains, growth OD, locus YBR229C, strain ROT2, active compounds read low
Out of some 5,500 compounds screened, about 2,000 (36%) were called active. Another 18% or so got no clear call; they are omitted. The list shows a part of the results.
property.label: normalized growth
Numbers only.

O=C(OC1Cc2c(O)cc(O)cc2OC1c1cc(O)c(O)c(O)c1-c1c(C2Oc3cc(O)cc(O)c3CC2OC(=O)c2cc(O)c(O)c(O)c2)cc(O)c(O)c1O)c1cc(O)c(O)c(O)c1 (stereo unspecified)	1
OC[C@@H](O)[C@@H](O[C@@H]1O[C@H](CO)[C@@H](O)[C@H](O)[C@H]1O)[C@H](O)[C@@H](O)CO	1.01
CCSc1sc(C(=O)OC)c(-c2ccc(Cl)cc2)c1C#N	0.985
CN[C@H](CC(=O)O)C(=O)O	0.998
CC(C)N(Cc1ccc(N(C)C)cc1)S(=O)(=O)c1cc(Cl)c(Cl)cc1Cl	1.01

# batch size: 6; output normalized growth per entry
1. COc1cc(C(=O)NCc2ccc(OCCN(C)C)cc2)cc(OC)c1OC
2. COC(=O)c1ccc(-c2ccc(Cl)cc2)s1
3. Nc1nc2c(ncn2C2C[C@H](O)[C@@H](CO)O2)c(=O)[nH]1 (stereo partly specified)
4. O=C1OC2COC(=O)C2C=C1NC(=O)c1ccc(Cl)cc1 (stereo unspecified)
5. C=CC(C1=CC(=O)C=CC1=O)c1ccccc1 (stereo unspecified)
6. C=CC(C1=CC(=O)C(OC)=CC1=O)c1ccccc1 (stereo unspecified)

0.951
0.901
0.997
0.372
0.974
0.969

# batch size: 4; output normalized growth per entry
1. Cc1occc(=O)c1/C=C/O
2. CN(C)CCOC(C)(c1ccccc1)c1ccccn1 (stereo unspecified)
3. CC/C(=C(\c1ccccc1)c1ccc(OCCN(C)C)cc1)c1ccccc1
4. COc1ccc(NS(=O)(=O)c2c(C)noc2C)cc1

[1, 1.01, 0.0463, 1.02]

* * *

- method: chemical genetic growth profiling, strain panel (AID 1159580)
- settings: S. cerevisiae deletion strains, growth OD, locus YLR221C, strain rsa3, active compounds read low
In all, about 5,500 compounds went through this assay and about 2,000 (36%) were called active. Another 18% or so got no clear call; they are omitted. The list shows a part of the results.
So I've got a bunch of compounds here, and I need their normalized growth values.
Numbers only.

Examples with answers:
Nc1ccc([As](=O)(O)O)cc1	1.01
N[C@@H](Cc1ccc(O)c(O)c1)C(=O)O	0.999
CC(=O)Nc1cc([As](=O)(O)O)ccc1O	1.02
CC1(C)CCCC2(C)C3C1[C@@H](O)C2(C)C[C@H]3O (stereo partly specified)	1.02
O=C1C=CC2=C3c4cc(O)c(O)cc4CC3(O)COC2=C1O (stereo unspecified)	0.992
O=C1C=CC2=C3c4cc(O)c(O)cc4C[C@@]3(O)COC2=C1	0.991

# batch size: 5; output normalized growth per entry
1. O=[N+]([O-])c1cc(O)c(O)c([N+](=O)[O-])c1
2. COc1ccccc1OCCNCC(O)COc1cccc2[nH]c3ccccc3c12 (stereo unspecified)
3. NCCCC[C@H](N[C@@H](CCc1ccccc1)C(=O)O)C(=O)N1CCC[C@H]1C(=O)O
4. CC(C)(C)NC[C@@H](O)COc1nsnc1N1CCOCC1
5. CCCCC1=NC2(CCCC2)C(=O)N1Cc1ccc(-c2ccccc2-c2nn[nH]n2)cc1

1. 1.06
2. 1.01
3. 0.981
4. 0.995
5. 1.01

* * *

So I've got a bunch of molecules here, and I need their normalized growth values.
- method: chemical genetic growth profiling, strain panel (AID 1159580)
- settings: S. cerevisiae deletion strains, growth OD, locus YDR069C, strain doa4, active compounds read low
The campaign covered roughly 5,500 compounds. About 2,000 (36%) were called active. Inconclusive results (about 18%) are left out. Some of the results follow.
Give bare numbers.

Examples with answers:
O=C1O[C@H](C(O)CO)C(O)=C1O (stereo partly specified)	0.991
CC1(C)C(C(Cl)Cl)C2(Cl)C(Cl)C(Cl)C1(Cl)C2(Cl)Cl (stereo unspecified)	0.967
CN[C@H](CC(=O)O)C(=O)O	1.02
O=c1[nH]c(=O)n(C2C[C@@H](O)[C@@H](CO)O2)cc1F (stereo partly specified)	0.998

# batch size: 3; output normalized growth per entry
1. CCOC(=O)c1oc2c(OC)c(O)cc(O)c2c(=O)c1-c1cc(OC)c(OC)c(OC)c1
2. C[C@H](N)[C@H](O)c1ccc(O)c(O)c1
3. C[n+]1cccc(C(=O)[O-])c1

0.991
1.01
0.958

# batch size: 4; output normalized growth per entry
1. O=C(OC1Cc2c(O)cc(O)cc2OC1c1cc(O)c(O)c(O)c1-c1c(C2Oc3cc(O)cc(O)c3CC2OC(=O)c2cc(O)c(O)c(O)c2)cc(O)c(O)c1O)c1cc(O)c(O)c(O)c1 (stereo unspecified)
2. COc1cc(OC)c2c(=O)c(-c3ccccc3)c(C)oc2c1OC
3. CCN(CC)CCNC(=O)c1cc(S(C)(=O)=O)ccc1OC
4. N[C@@H](Cc1ccc(O)c(O)c1)C(=O)O

0.797
0.966
0.974
1

* * *

- method: chemical genetic growth profiling, strain panel (AID 1159580)
- settings: S. cerevisiae deletion strains, growth OD, locus YNL322C, strain KRE1 (second series)
The whole screen tested about 5,500 compounds, of which about 2,000 (36%) were called active. Another 18% or so got no clear call; they are omitted. Rule as the data show it: active = normalized growth mostly below about 0.91 (no sharp cut-off); inconclusive = no clear call, values can overlap the other calls; inactive = mostly above about 0.92. Some of the results follow.
// classify into 1 for active, -1 for inactive

Past entries and their recorded results:
CC(C)=CCC[C@](C)(O)C1CC=C(C)CC1 (stereo partly drawn)	-1
O=[N+]([O-])c1cc([As](=O)(O)O)ccc1O	-1

Consider the additional compound presented here.
GET /call?item= O=[N+]([O-])c1cc(O)c(O)c([N+](=O)[O-])c1 returns the recorded outcome of this test.
-1

* * *

- method: chemical genetic growth profiling, strain panel (AID 1159580);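 further: tested at 20 µM; growth read once vehicle control cultures reached saturation at 30 °C; 1 = growth at the plate median or of vehicle wells; lower values mean less growth of the strain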
- settings: S. cerevisiae deletion strains, growth OD, locus YLR133W, strain CKI1
Out of some 5,500 compounds screened, about 2,000 (36%) were called active. About 18% were inconclusive and are not listed. Rule as the data show it: active = normalized growth mostly below about 0.91 (no sharp cut-off); inconclusive = no clear call, values can overlap the other calls; inactive = mostly above about 0.92. Some of the results follow.
// classify into active, inactive

CCOc1ccc(/C=C(\C)[N+](=O)[O-])cc1OC	active
Cn1c(CSCCOc2ccccc2)nnc1SCc1ccc(Cl)cc1Cl	inactive

GET /call?item= CSc1ccc(/C=C(\C)[N+](=O)[O-])cc1 returns the recorded outcome of this test.
active

GET /call?item= Fc1cccc(Cl)c1CSc1nncn1-c1ccc(OCc2ccccc2)cc1 returns the recorded outcome of this test.
inactive

* * *

- method: chemical genetic growth profiling, strain panel (AID 1159580);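 further: tested at 20 µM; growth read once vehicle control cultures reached saturation at 30 °C; 1 = growth at the plate median or of vehicle wells; lower values mean less growth of the strain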
- settings: S. cerevisiae deletion strains, growth OD, locus YNR052C, strain pop2
Screen size: about 5,500 compounds; about 2,000 (36%) were called active. Not shown: some 18% with an inconclusive outcome. Cut-off read from the data, not from the text of the source: active = normalized growth mostly below about 0.91 (no sharp cut-off); inconclusive = no clear call, values can overlap the other calls; inactive = mostly above about 0.92. The list shows a part of the results.
// classify into 1 (yes) = active, 0 (no) = inactive

Past entries and their recorded results:
O=C1C=CC2=C3c4cc(O)c(O)cc4C[C@@]3(O)COC2=C1	0 (no)
Oc1c(I)cc(I)c2cccnc12	1 (yes)
O=C(CCCCCCCCCCCCC1CCCC1)Nc1ccc(S(=O)(=O)c2ccc(NC(=O)CCCCCCCCCCCCC3CCCC3)cc2)cc1	0 (no)
NCCNC(=O)c1ccc(Cl)cc1	0 (no)
CCCC(C)C1(CC)C(=O)NC(=O)NC1=O (stereo not given)	0 (no)
C=C(C)[C@H]1CC=C(C(=O)O)CC1	0 (no)

GET /call?item= Oc1c(Br)cc(Br)c2cccnc12 returns the recorded outcome of this test.
1 (yes)

GET /call?item= O=C1C=CC2=C3c4cc(O)c(O)cc4CC3(O)COC2=C1O (stereo not given) returns the recorded outcome of this test.
0 (no)

GET /call?item= Nc1ccc(C(=O)NCC(=O)O)cc1 returns the recorded outcome of this test.
0 (no)

GET /call?item= CO[C@H]1/C=C/O[C@@]2(C)Oc3c(C)c(O)c4c(O)c(c(/C=N/N5CCN(C)CC5)c(O)c4c3C2=O)NC(=O)/C(C)=C\C=C\C(C)[C@H](O)[C@@H](C)[C@@H](O)[C@@H](C)[C@@H](OC(C)=O)[C@@H]1C (stereo not given in full) returns the recorded outcome of this test.
0 (no)

* * *

- method: chemical genetic growth profiling, strain panel (AID 1159580);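 further: tested at 20 µM; growth read once vehicle control cultures reached saturation at 30 °C; 1 = growth at the plate median or of vehicle wells; lower values mean less growth of the strain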
- settings: S. cerevisiae deletion strains, growth OD, locus YNL298W, strain CLA4
About 2,000 (36%) of roughly 5,500 compounds were called active. Another 18% or so got no clear call; they are omitted. No stated cut-off is given here; in the data, active means normalized growth mostly below about 0.91 (no sharp cut-off); inconclusive means no clear call, values can overlap the other calls; inactive means mostly above about 0.92. This is one part of the list.
// classify into active, inactive

Past entries and their recorded results:
OC[C@@H](O)[C@@H](O[C@@H]1O[C@H](CO)[C@@H](O)[C@H](O)[C@H]1O)[C@H](O)[C@@H](O)CO	inactive
C1CCN2C[C@@H]3C[C@H](CN4CCCC[C@@H]34)[C@H]2C1	inactive
CC(C)(C)NC[C@@H](O)COc1nsnc1N1CCOCC1	inactive

Consider the additional compound presented here.
GET /call?item= C=CC(C1=CC(=O)C(OC)=CC1=O)c1ccc(OC)cc1 (stereo unspecified) returns the recorded outcome of this test.
inactive

Each recorded value in this set is attributed to PubChem BioAssay AID1159580.
